- protocol: Cytotoxicity in MT-4 cells
- Type: cell-based
- details: human
recordedMetric: CC50 at 5 days

{"compound": "C[C@H](Cn1cnc2c(N)ncnc21)OCP(=O)(O)O [Tenofovir (PMPA), Tenofovir]", "CC50 at 5 days": "> 100 µM"}

Note: attention shifts to another entry.
Problem: Output CC50 at 5 days of CN[C@@H]1[C@H](O[C@@H]2OC[C@@H](O)[C@H](O)[C@H]2O)[C@@H](O)[C@H](O[C@H]2c3cc(C)c(C(=O)N[C@H](C)C(=O)O)c(O)c3-c3c(cc4c(c3O)C(=O)c3cc(OC)cc(O)c3C4=O)[C@@H]2O)O[C@@H]1C [Pradimicin A (PRM‐A), Pradimicin A]
Solution: > 100 µM

---

- protocol: Cell viability of compound-treated, uninfected RD cells
- Assay type: cell-based
- details: human, uninfected rhabdomyosarcoma (RD) cells
recordedMetric: CC50 at 3 days

Problem: Output CC50 at 3 days of `CCOC(=O)c1ccc(OCCC2CCN(c3ccc(C)nn3)CC2)cc1`
Solution: > 100 µM
